Origin of values: patent US10934302B1

biological target: SHP2 (Homo sapiens (Human), UniProt Q06124); test: SHP2 allosteric inhibition assay (DiFMUP prompt fluorescence); assay type: biochemical
Sequence (Q06124 whole entry): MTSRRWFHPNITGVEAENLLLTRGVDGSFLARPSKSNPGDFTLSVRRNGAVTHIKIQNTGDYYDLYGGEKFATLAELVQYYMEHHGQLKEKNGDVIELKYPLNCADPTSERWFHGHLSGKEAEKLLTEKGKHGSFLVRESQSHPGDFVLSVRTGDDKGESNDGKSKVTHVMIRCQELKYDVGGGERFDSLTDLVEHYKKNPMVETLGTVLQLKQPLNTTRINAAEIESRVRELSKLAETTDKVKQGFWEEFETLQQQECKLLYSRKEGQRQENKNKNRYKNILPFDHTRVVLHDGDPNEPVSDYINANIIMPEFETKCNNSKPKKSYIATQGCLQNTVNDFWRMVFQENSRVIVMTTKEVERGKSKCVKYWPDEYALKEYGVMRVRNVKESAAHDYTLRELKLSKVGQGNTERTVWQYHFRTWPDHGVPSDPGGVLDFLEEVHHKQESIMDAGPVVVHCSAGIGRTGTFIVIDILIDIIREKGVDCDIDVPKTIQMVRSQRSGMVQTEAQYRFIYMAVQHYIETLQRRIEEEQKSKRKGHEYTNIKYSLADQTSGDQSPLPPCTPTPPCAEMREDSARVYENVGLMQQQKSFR
pIC50: −log10 of the molar value.
propertyMeasured: pIC50

Given item Cc1ccc(C(=O)CSc2cnc(N3CCC4(CC3)Cc3ccccc3[C@H]4N)cn2)cc1 [Example 267] , the value recorded as its pIC50 is > 7.30
